Just for reference, patent US10604526B2 is where these values come from.

target: hCCR4 (Homo sapiens); assay: Calcium flux assay; conditions: Chem5-hCCR4 cells, CCL22 at EC80 of 1.5 nM, FLIPR Calcium 6 dye; read-out: Potency (IC50)
propertyName: IC50

Input: IC50 for C[C@H](c1ccc(Cl)cc1Cl)n1nc(C#N)c2ncc(N3CC(C4CCCN(CCC(N)=O)C4)C3)nc21 (mixture of isomers) ?
Output: < 100 nM

Input: What would you report for C[C@H](c1ccc(Cl)cc1Cl)n1nc(C#N)c2ncc(N3CC(C4CCCN(C5CCOCC5)C4)C3)nc21 (mixture of isomers) ?
Output: < 100 nM

Input: Could you do the same for Cc1nn([C@H](C)c2ccc(Cl)cc2Cl)c2nc(N3CC([C@H]4CCCN(CCC(=O)O)C4)C3)cnc12 (single isomer, unassigned) , please?
Output: < 100 nM

---

target: hCCR4 (Homo sapiens, UniProt P51679); test: Calcium flux assay; type: cell-based; details: Chem5-hCCR4 cells, CCL22 at EC80 of 1.5 nM, FLIPR Calcium 6 dye; read-out: Potency (IC50)
pIC50: −log10 of the molar value.
Reported pIC50 values follow for various compounds

# annotated cases, reported pIC50 shown
{"columns": ["compound", "pIC50"],
 "data": [
  ["CC(C)S(=O)(=O)NCCN1CCC[C@H](C2CN(c3cnc4c(C(F)(F)F)nn([C@H](C)c5ccc(Cl)cc5Cl)c4n3)C2)C1 (single isomer, unassigned) [Example 109]", "> 7.00"],
  ["C[C@H](c1ccc(Cl)cc1Cl)n1nc(C#N)c2ncc(N3CC(C4CCCN(CCCC(C)(C)O)C4)C3)nc21 (mixture of isomers) [Example 56]", "> 7.00"],
  ["Cc1nn([C@H](C)c2ccc(Cl)cc2Cl)c2nc(N3CC([C@@H]4CCCN(CCO)C4)C3)ncc12 (single isomer, unassigned) [Example 39]", "< 6.30"],
  ["C[C@H](c1ccc(Cl)cc1Cl)n1nc(C#N)c2ncc(N3CC([C@H]4CCCN(CCC(N)=O)C4)C3)nc21 (single isomer, unassigned) [Example 26]", "> 7.00"],
  ["COC(=O)NCCN1CCCC(C2CN(c3cnc4c(C)nn([C@H](C)c5ccc(Cl)cc5Cl)c4n3)C2)C1 (mixture of isomers) [Example 67]", "> 7.00"]
]}

Note: attention shifts to another entry.
Input: Please give the measured pIC50 for this compound: CC(=O)N[C@H](C)CN1CCC[C@H](C2CN(c3cnc4c(C(F)(F)F)nn([C@H](C)c5ccc(Cl)cc5Cl)c4n3)C2)C1 [Example 105]
Output: > 7.00

---

target: hCCR4 (Homo sapiens, UniProt P51679); assay: Calcium flux assay; conditions: Chem5-hCCR4 cells, CCL22 at EC80 of 1.5 nM, FLIPR Calcium 6 dye; read-out: Potency (IC50)
propertyName: IC50

{"columns": ["compound", "IC50"],
 "data": [
  ["CC(c1ccc(Cl)cc1Cl)n1nc(C#N)c2ncc(N3CC([C@@H]4CCCN(CCO)C4)C3)nc21 (single isomer, unassigned)", "< 100 nM"],
  ["C[C@H](c1ccc(Cl)cc1Cl)n1nc(C#N)c2ncc(N3CC([C@@H]4CCCN(CCCC(=O)O)C4)C3)nc21 (single isomer, unassigned)", "< 100 nM"],
  ["CC(=O)N[C@@H](C)CN1CCC[C@H](C2CN(c3cnc4c(C(F)(F)F)nn([C@H](C)c5ccc(Cl)cc5Cl)c4n3)C2)C1", "< 100 nM"]
]}

Input: Which measured IC50 value corresponds to CC(C)C(=O)NCCN1CCC[C@@H](C2CN(c3cnc4c(C(F)(F)F)nn([C@H](C)c5ccc(Cl)cc5Cl)c4n3)C2)C1 (single isomer, unassigned) [Example 51] ?
Output: 100 to 500 nM

Input: Same again, this time with Cc1nn([C@H](C)c2ccc(Cl)cc2Cl)c2nc(N3CC([C@@H]4CCCN(CCC(=O)O)C4)C3)cnc12 (single isomer, unassigned)
Output: > 500 nM

Input: Now consider C[C@H](c1ccc(Cl)cc1Cl)n1nc(C#N)c2ncc(N3CC([C@@H]4CCCN(CCCS(N)(=O)=O)C4)C3)nc21 (single isomer, unassigned) .
Output: 100 to 500 nM

---

Molecular target: UniProtKB P51679
Sequence (P51679 1-360): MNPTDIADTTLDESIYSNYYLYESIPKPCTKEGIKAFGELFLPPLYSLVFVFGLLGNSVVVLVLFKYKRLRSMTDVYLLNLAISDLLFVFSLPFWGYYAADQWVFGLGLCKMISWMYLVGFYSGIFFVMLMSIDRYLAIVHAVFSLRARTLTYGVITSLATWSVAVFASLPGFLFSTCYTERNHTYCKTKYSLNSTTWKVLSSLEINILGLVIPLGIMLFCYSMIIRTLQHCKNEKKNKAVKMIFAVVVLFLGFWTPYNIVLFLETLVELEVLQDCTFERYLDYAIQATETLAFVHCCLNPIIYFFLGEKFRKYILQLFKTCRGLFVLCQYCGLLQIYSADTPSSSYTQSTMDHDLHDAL
Assay: Calcium flux assay
Details: Chem5-hCCR4 cells, CCL22 at EC80 of 1.5 nM, FLIPR Calcium 6 dye; read-out: Potency (IC50)
pIC50: −log10 of the molar value.
propertyName: pIC50

Input: Could you share which pIC50 value was measured for C[C@H](c1ccc(Cl)cc1Cl)n1nc(C#N)c2ncc(N3CC([C@H]4CCCN(CCCC(=O)O)C4)C3)nc21 (single isomer, unassigned) [Example 18] ?
Output: > 7.00

Input: What do you get for C[C@H](c1ccc(Cl)cc1Cl)n1nc(C(N)=O)c2ncc(N3CC([C@@H]4CCCN(CCCC(=O)O)C4)C3)nc21 (single isomer, unassigned) [Example 32] ?
Output: 6.30 to 7.00

Input: // repeat for C[C@H](c1ccc(Cl)cc1Cl)n1nc(C(N)=O)c2ncc(N3CC([C@H]4CCCN(CCCC(=O)O)C4)C3)nc21 (single isomer, unassigned) [Example 33] and report
Output: > 7.00

Input: How about this compound: CCCN1CCC[C@@H](C2CN(c3cnc4c(C#N)nn([C@H](C)c5ccc(Cl)cc5Cl)c4n3)C2)C1 (single isomer, unassigned) [Example 72]
Output: 6.30 to 7.00

Input: Next: COC(=O)NCCN1CCC[C@H](C2CN(c3cnc4c(C)nn([C@H](C)c5ccc(Cl)cc5Cl)c4n3)C2)C1 (single isomer, unassigned) [Example 84]
Output: > 7.00

---

target: hCCR4 (Homo sapiens, UniProt P51679); assay: Calcium flux assay; details: Chem5-hCCR4 cells, CCL22 at EC80 of 1.5 nM, FLIPR Calcium 6 dye; read-out: Potency (IC50)
Recorded IC50 for the following molecules

Guide cases for IC50, answers given:
{"columns": ["molecule", "testedOn", "IC50"],
 "data": [
  ["Cc1nn([C@H](C)c2ccc(Cl)cc2Cl)c2nc(N3CC([C@H]4CCCN(CCCS(C)(=O)=O)C4)C3)cnc12 (single isomer, unassigned)", "hCCR4 (Homo sapiens, UniProt P51679)", "< 100 nM"],
  ["Cc1nn([C@H](C)c2ccc(Cl)cc2Cl)c2nc(N3CC(C4CCCN(CCNS(=O)(=O)C(C)C)C4)C3)cnc12 (single isomer, unassigned) [Example 97]", "hCCR4 (Homo sapiens, UniProt P51679)", "< 100 nM"]
]}

Now, please, on to the next molecule.
Input: Which IC50 value belongs to C[C@H](c1ccc(Cl)cc1Cl)n1nc(C#N)c2ncc(N3CC([C@H]4CCCN(CC(C)(C)O)C4)C3)nc21 (single isomer, unassigned) ?
Output: < 100 nM

---

Target: hCCR4 (Homo sapiens)
Sequence (P51679 1-360): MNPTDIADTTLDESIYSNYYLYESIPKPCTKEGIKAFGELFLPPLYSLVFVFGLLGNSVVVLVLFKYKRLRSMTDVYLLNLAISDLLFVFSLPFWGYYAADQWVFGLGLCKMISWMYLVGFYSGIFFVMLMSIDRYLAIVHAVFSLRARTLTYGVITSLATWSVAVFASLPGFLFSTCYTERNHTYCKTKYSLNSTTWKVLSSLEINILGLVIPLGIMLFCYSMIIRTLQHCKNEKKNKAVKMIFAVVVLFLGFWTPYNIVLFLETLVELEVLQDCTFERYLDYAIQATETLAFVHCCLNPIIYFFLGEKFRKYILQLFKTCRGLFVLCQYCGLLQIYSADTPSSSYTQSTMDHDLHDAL
Assay: Calcium flux assay
Details: Chem5-hCCR4 cells, CCL22 at EC80 of 1.5 nM, FLIPR Calcium 6 dye; read-out: Potency (IC50)
pIC50: −log10 of the molar value.
propertyName: pIC50

Previously resolved entries follow.
{"columns": ["molecule", "assayResult"],
 "data": [
  ["CCOC(=O)CN1CCCC(C2CN(c3cnc4c(C)nn([C@H](C)c5ccc(Cl)cc5Cl)c4n3)C2)C1 (mixture of isomers)", "< 6.30"],
  ["Cc1nn([C@H](C)c2ccc(Cl)cc2Cl)c2nc(N3CC([C@H]4CCCN(CCO)C4)C3)ncc12 (single isomer, unassigned)", "> 7.00"]
]}

Shift focus to the following entry.
Input: Looking for the measured pIC50 of CC(=O)NCCN1CCCC(C2CN(c3cnc4c(C(F)(F)F)nn([C@H](C)c5ccc(Cl)cc5Cl)c4n3)C2)C1 (single isomer, unassigned) [Example 87] , can you help?
Output: > 7.00
